# reported inhibition at 100 µM; entries follow
- ASSAYED SYSTEM: UniProtKB P0DTD1
- EXPERIMENT DESCRIPTION: biochemical
- RUN PARAMETERS: read-out: %inhibition
Counter-ions that a name gives are not always drawn.
READOUT: inhibition at 100 µM (%)

[[record]]
compound = "CN1C(C(=O)Nc2ccccn2)=C(O)c2ccccc2S1(=O)=O"
quantitative_result = 38

[[record]]
compound = "CS(=O)(=O)c1ccc(C(=O)Nc2ccc(Cl)c(-c3ccccn3)c2)c(Cl)c1"
quantitative_result = 0

[[record]]
compound = "CCCCCOC(=O)Nc1nc(=O)n([C@@H]2O[C@H](C)[C@@H](O)[C@H]2O)cc1F"
quantitative_result = 6.29

[[record]]
compound = "O=C(O)CCC(=O)O [Sodium succinate]"
quantitative_result = 0

[[record]]
compound = "CS(=O)(=O)c1cccc(C[C@H](NC(=O)c2c(Cl)cc3c(c2Cl)CCN(C(=O)c2ccc4ccoc4c2)C3)C(=O)O)c1"
quantitative_result = 0

[[record]]
compound = "CCOC(=O)n1ccn(C)c1=S"
quantitative_result = 0

[[record]]
compound = "O=C(O)c1cc(O)c(O)c(O)c1"
quantitative_result = 0

[[record]]
compound = "C=C1CC[C@H](O)C/C1=C/C=C1\\CCC[C@]2(C)[C@@H]([C@H](C)/C=C/[C@H](C)C(C)C)CC[C@@H]12 [Vitamin D2]"
quantitative_result = 0

[[record]]
compound = "COc1cc2nc(N(C)CCCNC(=O)C3CCCO3)nc(N)c2cc1OC (stereo not drawn) [Alfuzosin HCl]"
quantitative_result = 0

